Listing of entries alongside the reported IC50.
Test system: K-562 leukemia growth, % test/control
Assay: Anticancer human tumor K-562 cell line growth inhibition;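 further: spheroids exposed to compounds for 7 days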
Conditions: curve of first compound; second compound 1 µM; spheroids with HUVEC and MSC
Numbers only; they are read as nM.

Recorded results for 2 compounds are shown here.
compound="Nc1ccn(C2OC(CO)C(O)C2(F)F)c(=O)n1 (centres undefined) + NC1CC1c1ccc(-c2cccc(O)c2)cc1" metric=IC50 measured_number=7.91
compound="Nc1ncn(C2CC(O)C(CO)O2)c(=O)n1 (centres undefined) + NC1CCC(NC2CC2c2ccccc2)CC1" metric=IC50 measured_number=640

Input line: Enter reported IC50 observed with K-562 leukemia growth, % test/control for CC[C@@]1(O)C(=O)OCc2c1cc1n(c2=O)Cc2cc3c(CN(C)C)c(O)ccc3nc2-1 + NC1CCC(NC2CC2c2ccccc2)CC1
Output line: 1.69

* * *

Tested on: K-562 leukemia growth, % test/control
Test: Anticancer human tumor K-562 cell line growth inhibition;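 further: spheroids exposed to compounds for 7 days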;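 on viability, T/C: 100% = DMSO vehicle wells and lower values mean fewer viable cells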
Details: second compound 0.1 µM; first compound 3 µM; stronger effect = lower value; spheroids with HUVEC and MSC
Excerpt: Multicellular complex tumor spheroid response to LSD1 Inhibitor Iadademstat in combination with a variety of drugs and investigational agents in selected tumor cell lines The current study was undertaken to assess response to LSD1 inhibitors in combination with standard-of-care drugs and investigational agents in solid tumor complex spheroid models as well as in the K-562 leukemia. […] Compounds. […] If the clinical Cmax for an agent had not been determined, the highest concentration tested was 10 microM. […]
API: label(entry) gives Yes if the entry's viability, T/C is strictly smaller than 1%; on equality or larger values it gives No.

molecule="Nc1ccccc1NC(=O)c1ccc(CNC(=O)OCc2cccnc2)cc1 + NC1CC1c1ccc(-c2cccc(O)c2)cc1" group=No
molecule="Nc1ccccc1NC(=O)c1ccc(CNC(=O)OCc2cccnc2)cc1 + NC1CCC(NC2CC2c2ccccc2)CC1" group=Yes
molecule="O=C(C=Cc1cccc(S(=O)(=O)Nc2ccccc2)c1)NO + NC1CC1c1ccc(-c2cccc(O)c2)cc1" group=No

Input line: Say whether its viability, T/C is strictly beneath 1%. Entry: COc1cc(C2c3cc4c(cc3C(OC3OC5COC(C)OC5C(O)C3O)C3COC(=O)C23)OCO4)cc(OC)c1O (configuration not stated) + NC1CCC(NC2CC2c2ccccc2)CC1
Output line: No

Input line: Okay, and NS(=O)(=O)OCC1CC(n2ccc3c(NC4CCc5ccccc54)ncnc32)CC1O (configuration not stated) + NC1CC1c1ccc(-c2cccc(O)c2)cc1 ?
Output line: No

Input line: Queued: CCN(c1cc(-c2ccc(CN3CCOCC3)cc2)cc(C(=O)NCc2c(C)cc(C)[nH]c2=O)c1C)C1CCOCC1 + NC1CCC(NC2CC2c2ccccc2)CC1
Output line: No

Input line: Moving on to O=C(C=Cc1cccc(S(=O)(=O)Nc2ccccc2)c1)NO + NC1CCC(NC2CC2c2ccccc2)CC1
Output line: Yes

* * *

Test system: K-562 leukemia growth, % test/control
Experiment: Anticancer human tumor K-562 cell line growth inhibition; active = viability on the fitted dose curve at most 10% of control; inactive = the rest;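 further: spheroids exposed to compounds for 7 days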
Settings: second compound 3.16 µM; first compound 0.0316 µM; spheroids with HUVEC and MSC
Answer with one of the outcomes class 1 for active, class 0 for inactive

Here's what some known entries look like.
molecule="CC(C)c1c(-c2ccccc2)nc2c(C#N)c[nH]n2c1=O + NC1CCC(NC2CC2c2ccccc2)CC1" group="class 0"
molecule="CC1COCCN1c1cc(-c2ccnn2C)c2ccnc(-c3ccn[nH]3)c2n1 (configuration not stated) + NC1CCC(NC2CC2c2ccccc2)CC1" group="class 0"
molecule="CC1(C)CCC(CN2CCN(c3ccc(C(=O)NS(=O)(=O)c4ccc(NCC5CCOCC5)c([N+](=O)[O-])c4)c(Oc4cnc5[nH]ccc5c4)c3)CC2)=C(c2ccc(Cl)cc2)C1 + NC1CCC(NC2CC2c2ccccc2)CC1" group="class 0"
molecule="CC[C@@]1(O)C(=O)OCc2c1cc1n(c2=O)Cc2cc3c(CN(C)C)c(O)ccc3nc2-1 + NC1CCC(NC2CC2c2ccccc2)CC1" group="class 1"

Input line: Please let me know the test result on file for O=C(C=Cn1cnc(-c2cc(C(F)(F)F)cc(C(F)(F)F)c2)n1)NNc1cnccn1 + NC1CCC(NC2CC2c2ccccc2)CC1 .
Output line: class 0

Input line: And the next one, CC1COCCN1c1cc(C2(S(C)(=N)=O)CC2)nc(-c2ccnc3[nH]ccc23)n1 (configuration not stated) + NC1CC1c1ccc(-c2cccc(O)c2)cc1 ?
Output line: class 0

Input line: Proceed to CC1COCCN1c1cc(-c2ccnn2C)c2ccnc(-c3ccn[nH]3)c2n1 (configuration not stated) + NC1CC1c1ccc(-c2cccc(O)c2)cc1
Output line: class 1

* * *

Catalogue of IC50 values
Test system: K-562 leukemia growth, % test/control
Assay: Anticancer human tumor K-562 cell line growth inhibition;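 further: spheroids exposed to compounds for 7 days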
Details: curve of first compound; second compound 3.16 µM; spheroids with HUVEC and MSC
Express it in nM; write the number only.

compound="CC(C)CC(NC(=O)C(Cc1ccccc1)NC(=O)c1cnccn1)B(O)O (centres undefined) + NC1CC1c1ccc(-c2cccc(O)c2)cc1" metric=IC50 readout_unit=nM measured_number=0.576

Let's switch to this compound now.
Input line: I have this compound here, Nc1ncn(C2CC(O)C(CO)S2)c(=O)n1 (centres undefined) + NC1CC1c1ccc(-c2cccc(O)c2)cc1 , and I need its recorded IC50.
Output line: 76.8

* * *

Here the recorded viability, T/C is given for each entry.
System: K-562 leukemia growth, % test/control
Test: Anticancer human tumor K-562 cell line growth inhibition;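 further: spheroids exposed to compounds for 7 days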;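 on viability, T/C: 100% = DMSO vehicle wells and lower values mean fewer viable cells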
Conditions: second compound 3.16 µM; first compound 0.0316 µM; stronger effect = lower value; spheroids with HUVEC and MSC
// units = %; emit number, no label

// below: answered compounds
compound="Nc1ncn(C2CC(O)C(CO)O2)c(=O)n1 (stereo unspecified) + NC1CCC(NC2CC2c2ccccc2)CC1" metric="viability, T/C" measured_number=88.1
compound="CC1(C)CCC(CN2CCN(c3ccc(C(=O)NS(=O)(=O)c4ccc(NCC5CCOCC5)c([N+](=O)[O-])c4)c(Oc4cnc5[nH]ccc5c4)c3)CC2)=C(c2ccc(Cl)cc2)C1 + NC1CC1c1ccc(-c2cccc(O)c2)cc1" metric="viability, T/C" measured_number=105
compound="COc1cc(Nc2ncc3c(n2)-c2ccc(Cl)cc2C(c2c(F)cccc2OC)=NC3)ccc1C(=O)O + NC1CC1c1ccc(-c2cccc(O)c2)cc1" metric="viability, T/C" measured_number=21.4
compound="CC1COCCN1c1cc(C2(S(C)(=N)=O)CC2)nc(-c2ccnc3[nH]ccc23)n1 (stereo unspecified) + NC1CCC(NC2CC2c2ccccc2)CC1" metric="viability, T/C" measured_number=103
compound="CC[C@@]1(O)C(=O)OCc2c1cc1n(c2=O)Cc2cc3c(CN(C)C)c(O)ccc3nc2-1 + NC1CC1c1ccc(-c2cccc(O)c2)cc1" metric="viability, T/C" measured_number=11

Input line: What measured viability, T/C goes with O=C(c1cc(Cc2n[nH]c(=O)c3ccccc23)ccc1F)N1CCN(C(=O)C2CC2)CC1 + NC1CC1c1ccc(-c2cccc(O)c2)cc1 ?
Output line: 104

* * *

Tested on: K-562 leukemia growth, % test/control
Assay: Anticancer human tumor K-562 cell line growth inhibition; active = viability on the fitted dose curve at most 10% of control; inactive = the rest;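 further: spheroids exposed to compounds for 7 days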
Conditions: second compound 1 µM; first compound 0.03 µM; spheroids with HUVEC and MSC
Answer with one of the outcomes t = active, f = inactive

Some solved cases for reference:
compound="NS(=O)(=O)OCC1CC(n2ccc3c(NC4CCc5ccccc54)ncnc32)CC1O (stereo unspecified) + NC1CCC(NC2CC2c2ccccc2)CC1" target_system="K-562 leukemia growth, % test/control" group=f
compound="COc1cc(C2c3cc4c(cc3C(OC3OC5COC(C)OC5C(O)C3O)C3COC(=O)C23)OCO4)cc(OC)c1O (stereo unspecified) + NC1CCC(NC2CC2c2ccccc2)CC1" target_system="K-562 leukemia growth, % test/control" group=f
compound="Nc1ccn(C2OC(CO)C(O)C2(F)F)c(=O)n1 (stereo unspecified) + NC1CCC(NC2CC2c2ccccc2)CC1" target_system="K-562 leukemia growth, % test/control" group=t

Input line: Outcome? Nc1ncn(C2CC(O)C(CO)S2)c(=O)n1 (stereo unspecified) + NC1CC1c1ccc(-c2cccc(O)c2)cc1
Output line: f

Input line: Do the same for COc1cc(C2c3cc4c(cc3C(OC3OC5COC(C)OC5C(O)C3O)C3COC(=O)C23)OCO4)cc(OC)c1O (stereo unspecified) + NC1CC1c1ccc(-c2cccc(O)c2)cc1 please
Output line: f

* * *

System: K-562 leukemia growth, % test/control
Test: Anticancer human tumor K-562 cell line growth inhibition;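 further: spheroids exposed to compounds for 7 days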;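 on viability, T/C: 100% = DMSO vehicle wells and lower values mean fewer viable cells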
Details: second compound 0.1 µM; first compound 0.00316 µM; stronger effect = lower value; spheroids with HUVEC and MSC
From the text: Multicellular complex tumor spheroid response to LSD1 Inhibitor Iadademstat in combination with a variety of drugs and investigational agents in selected tumor cell lines The current study was undertaken to assess response to LSD1 inhibitors in combination with standard-of-care drugs and investigational agents in solid tumor complex spheroid models as well as in the K-562 leukemia. […] Compounds. […] If the clinical Cmax for an agent had not been determined, the highest concentration tested was 10 microM. […]
Listed below: viability, T/C values for each entry.

Worked examples, 5 compounds total:
compound="O=C(C=Cn1cnc(-c2cc(C(F)(F)F)cc(C(F)(F)F)c2)n1)NNc1cnccn1 + NC1CCC(NC2CC2c2ccccc2)CC1" metric="viability, T/C" result=104%
compound="COc1cc(Nc2ncc3c(n2)-c2ccc(Cl)cc2C(c2c(F)cccc2OC)=NC3)ccc1C(=O)O + NC1CC1c1ccc(-c2cccc(O)c2)cc1" metric="viability, T/C" result=31.1%
compound="O=C(C=Cn1cnc(-c2cc(C(F)(F)F)cc(C(F)(F)F)c2)n1)NNc1cnccn1 + NC1CC1c1ccc(-c2cccc(O)c2)cc1" metric="viability, T/C" result=106%
compound="CC[C@@]1(O)C(=O)OCc2c1cc1n(c2=O)Cc2cc3c(CN(C)C)c(O)ccc3nc2-1 + NC1CC1c1ccc(-c2cccc(O)c2)cc1" metric="viability, T/C" result=61.6%
compound="CC(C)CC(NC(=O)C(Cc1ccccc1)NC(=O)c1cnccn1)B(O)O (configuration not stated) + NC1CC1c1ccc(-c2cccc(O)c2)cc1" metric="viability, T/C" result=0.7%

Input line: What viability, T/C value was documented for this compound, CC1COCCN1c1cc(-c2ccnn2C)c2ccnc(-c3ccn[nH]3)c2n1 (configuration not stated) + NC1CC1c1ccc(-c2cccc(O)c2)cc1 ?
Output line: 28.6%

Input line: Next entry: Cn1ncnc1C1c2n[nH]c(=O)c3cc(F)cc(c23)NC1c1ccc(F)cc1 (configuration not stated) + NC1CC1c1ccc(-c2cccc(O)c2)cc1
Output line: 108%

Provenance of the data: PubChem BioAssay AID1918948
